Item-by-item account of cytotoxicity at 70.5 h
- METHOD_NOTES: Human HepG2 cell viability assay in 384 well format
- Format: toxicity, cell-based
- Set-up: dose 125 nL, time 70.5 hour; concentration not given beside the values
- CONDITION_PARAMETERS: HepG2 cells, read-out: Inhibition
Note: unit % is implicit; provide only the numeric part.

See these solved cases before continuing.
CN1CCCC(CCC(=O)N2CCc3sc(C(=O)N(C)C)cc3C2)C1 (stereo not given)    -5.77
CCN1CCCC12CCN(Cc1cccnc1OC)CC2    -4.58
CCNC(=O)NCc1cccc(N2CC=CC2)c1    1.58
Cc1cnn(CC(C)NCc2ccc(OCc3ccncc3)cc2)c1 (stereo not given)    30.2
CC(C)(C)c1cc(CN2C[C@H]3CC[C@@H]2CN(Cc2ccccn2)C3)n[nH]1    -5.84
N#Cc1ccc(CN2CCCN(CCCn3cncn3)CC2)cc1    3.01
Cc1ccc(S(=O)(=O)Cc2noc([C@@H]3C[C@@H](O)CN3C(C)C)n2)cc1    -8.79
CCOc1ccc(N2CCCN=C2NC(=O)c2cccc(Cl)c2)cc1    -9.1
O=C(COCc1ccccc1Cl)N1CCN(c2ncccn2)CC1    6.02
CC(C)N(C)C(=O)C1=NOC2(CCN(C(=O)c3ccnnc3)C2)C1 (stereo not given)    -1.5

In: Consider the compound shown here: `Cc1nc(N2CCCC2)nc2c1CCN(Cc1ccoc1)CC2` What is its recorded cytotoxicity at 70.5 h?
Out: -6.88

----------
- METHOD_NOTES: Human HepG2 cell viability assay in 384 well format
- Format: toxicity, cell-based
- Parameters: dose 125 nL, time 70.5 hour; concentration not given beside the values
- CONDITION_PARAMETERS: HepG2 cells, read-out: Inhibition
READOUT_TYPE: cytotoxicity at 70.5 h (%)
Note: unit % is implicit; provide only the numeric part.

CN(C)C(=O)CNC(=O)CCn1ncc2c(Cl)cccc21    -5.6
O=C(CCN1CCc2c(ncn2C2CC2)C1)NC1CCCC1    -6.41
CCS(=O)(=O)N1CCCCC1c1nc(C)no1 (stereo not given)    -5.51
CN(C)S(=O)(=O)N1CCC[C@]2(C[C@@H](Oc3ncccc3F)CO2)C1    -11.4
CCCN(CC(=O)NC)C(=O)c1ccc(-c2ccsc2)nc1C    -4.88

In: Consider the molecule shown here: `COC(=O)C1CCN(C(=O)c2cc(Br)ccc2-n2cnnn2)CC1` What is its recorded cytotoxicity at 70.5 h?
Out: -1.5

In: Consider the molecule shown here: CC(NC(=O)c1cc2n(n1)CCCN(C)C2)c1cn2ccsc2n1 (stereo not given) What is its recorded cytotoxicity at 70.5 h?
Out: 24.9

In: Consider the molecule shown here: Cc1nc(C)n(CC2CCCN2Cc2nc(-c3ccoc3)no2)n1 (stereo not given) What is its recorded cytotoxicity at 70.5 h?
Out: -11.7

In: Consider the molecule shown here: `Cc1cc(C(=O)CN2CCN(c3ncccn3)CC2)c(C)n1C(C)C` What is its recorded cytotoxicity at 70.5 h?
Out: 12.3

In: Consider the molecule shown here: `COCC(=O)N(C)Cc1cccc(Cl)c1` What is its recorded cytotoxicity at 70.5 h?
Out: 38.1

In: Consider the molecule shown here: `Cc1oc(-c2ccsc2)nc1CC(=O)NCC(C)(C)CN(C)C` What is its recorded cytotoxicity at 70.5 h?
Out: -9.09

In: Consider the molecule shown here: `COc1ccc2c(ccn2CCC(=O)Nc2nc[nH]n2)c1` What is its recorded cytotoxicity at 70.5 h?
Out: 0.0223

In: Consider the molecule shown here: `CCOc1ccc(CNC(=O)N(C)CC(C)(C)O)cc1C` What is its recorded cytotoxicity at 70.5 h?
Out: -60

In: Consider the molecule shown here: Cn1cc(CNC2CCS(=O)(=O)C2)c(-c2cc3ccccc3o2)n1 (stereo not given) What is its recorded cytotoxicity at 70.5 h?
Out: 5.22

----------
- METHOD_NOTES: Human HepG2 cell viability assay in 384 well format
- Format: toxicity, cell-based
- Design: dose 125 nL, time 70.5 hour; concentration not given beside the values
- CONDITION_PARAMETERS: HepG2 cells, read-out: Inhibition
Item-by-item account of cytotoxicity at 70.5 h
Note: unit % is implicit; provide only the numeric part.

See these solved cases before continuing.
CCOCC(=O)N1C[C@@H](O)[C@H](N2CCN(c3ccccc3)CC2)C1    -3.95
Cc1noc(CN(CCO)Cc2cc(Br)ccc2F)n1    -1.67

In: Consider the compound shown here: Cc1nnc(N2CCCC3(CN(c4cccc(F)c4)CCO3)C2)o1 (stereo not given) What is its recorded cytotoxicity at 70.5 h?
Out: 1.49

In: Consider the compound shown here: `CN(Cc1ccsc1)C(=O)c1cccc(NS(C)(=O)=O)c1` What is its recorded cytotoxicity at 70.5 h?
Out: -7.22

In: Consider the compound shown here: `COc1cc(C(=O)NCCc2ccc(Cl)cc2)on1` What is its recorded cytotoxicity at 70.5 h?
Out: 0.265

In: Consider the compound shown here: Cc1ccc(-c2nc(CNCC3CN(C)CCO3)cs2)o1 (stereo not given) What is its recorded cytotoxicity at 70.5 h?
Out: 18.6

In: Consider the compound shown here: `Cc1cc(C[C@@H]2COC[C@H]2NCc2ccccc2C(F)(F)F)on1` What is its recorded cytotoxicity at 70.5 h?
Out: -11

----------
Item-by-item account of cytotoxicity at 70.5 h
- METHOD_NOTES: Human HepG2 cell viability assay in 384 well format
- Type: toxicity, cell-based
- Design: dose 125 nL, time 70.5 hour; concentration not given beside the values
- CONDITION_PARAMETERS: HepG2 cells, read-out: Inhibition
Note: unit % is implicit; provide only the numeric part.

See these solved cases before continuing.
CC(O)CN(c1ccccc1)S(=O)(=O)c1cc(C(=O)O)cc2c1CCC2 (stereo not given)    -7.68
COc1cc(C)ccc1OCC(=O)NS(=O)(=O)c1ccc(Br)s1    -4.31
CCc1nnc2n1CCN(Cc1csc(Cc3ccccc3)n1)C2    15.5
CCc1cnc(N)nc1NC(C)c1cnn(C)c1 (stereo not given)    -5.96
Cc1ncoc1C(=O)N1CCCC(C(=O)c2cccc(OC(C)C)c2)C1 (stereo not given)    -8.43

Proceeding to the next compound to report its cytotoxicity at 70.5 h.
In: Consider the compound shown here: `C[C@@H]1CN(CCCOc2ccc(F)cc2)CC[C@@]1(O)C1CCOCC1` What is its recorded cytotoxicity at 70.5 h?
Out: 2.59

----------
- METHOD_NOTES: Human HepG2 cell viability assay in 384 well format
- Type: toxicity, cell-based
- Design: dose 125 nL, time 70.5 hour; concentration not given beside the values
- CONDITION_PARAMETERS: HepG2 cells, read-out: Inhibition
Item-by-item account of cytotoxicity at 70.5 h
Note: unit % is implicit; provide only the numeric part.

Cc1nn(C)c(C)c1-c1ccc(=O)n(C(C)C(=O)NC2CCCC2)n1 (stereo unspecified)    -5.55
O=S(=O)(N1CCCC1)N1CC(c2ccnc(Nc3ccccn3)n2)C1    8.07
COCCN(Cc1cc(O)nc2ccccc12)C(=O)NC(C)C    -14.7
c1ncn(CC2CN(Cc3nc(C4CC4)no3)CCO2)n1 (stereo unspecified)    17.2
COCC(=O)N1CCC2(CC1)CC(c1cnn(C)c1)C(=O)N2 (stereo unspecified)    -6.84

In: Consider the compound shown here: `CN(C(=O)c1ccc(NC(=O)c2cc[nH]n2)cc1)C1CCCCC1` What is its recorded cytotoxicity at 70.5 h?
Out: -9.38

----------
Item-by-item account of cytotoxicity at 70.5 h
- METHOD_NOTES: Human HepG2 cell viability assay in 384 well format
- Format: toxicity, cell-based
- Design: dose 125 nL, time 70.5 hour; concentration not given beside the values
- CONDITION_PARAMETERS: HepG2 cells, read-out: Inhibition
Note: unit % is implicit; provide only the numeric part.

In: Consider the compound shown here: `Cc1cc(C)c(CNC(=O)c2ccc3c(c2)CCC3)c(=O)[nH]1` What is its recorded cytotoxicity at 70.5 h?
Out: 4.13

In: Consider the compound shown here: Fc1ccc(CN2CCCC3(CCN(Cc4ncc[nH]4)C3)C2)cc1F (stereo unspecified) What is its recorded cytotoxicity at 70.5 h?
Out: -0.549

In: Consider the compound shown here: O=C(O)CC(CC(=O)NCc1ccsc1)c1cccs1 (stereo unspecified) What is its recorded cytotoxicity at 70.5 h?
Out: -5.7

In: Consider the compound shown here: Cc1nn(C)c(Cl)c1C1CCCN1c1ncnc2sccc12 (stereo unspecified) What is its recorded cytotoxicity at 70.5 h?
Out: -1.91

In: Consider the compound shown here: `COc1cc(CN2CCC3(CC2)[C@H](O)C[C@@H]3OCCO)ccc1F` What is its recorded cytotoxicity at 70.5 h?
Out: -8.63

In: Consider the compound shown here: `CN(C(=O)CSc1ncc[nH]1)C1CC1` What is its recorded cytotoxicity at 70.5 h?
Out: -3.27

Recorded values, source ChEMBL document CHEMBL3507680.
